- MEASURED_ON: UniProtKB Q13547
- Sequence (Q13547 whole entry): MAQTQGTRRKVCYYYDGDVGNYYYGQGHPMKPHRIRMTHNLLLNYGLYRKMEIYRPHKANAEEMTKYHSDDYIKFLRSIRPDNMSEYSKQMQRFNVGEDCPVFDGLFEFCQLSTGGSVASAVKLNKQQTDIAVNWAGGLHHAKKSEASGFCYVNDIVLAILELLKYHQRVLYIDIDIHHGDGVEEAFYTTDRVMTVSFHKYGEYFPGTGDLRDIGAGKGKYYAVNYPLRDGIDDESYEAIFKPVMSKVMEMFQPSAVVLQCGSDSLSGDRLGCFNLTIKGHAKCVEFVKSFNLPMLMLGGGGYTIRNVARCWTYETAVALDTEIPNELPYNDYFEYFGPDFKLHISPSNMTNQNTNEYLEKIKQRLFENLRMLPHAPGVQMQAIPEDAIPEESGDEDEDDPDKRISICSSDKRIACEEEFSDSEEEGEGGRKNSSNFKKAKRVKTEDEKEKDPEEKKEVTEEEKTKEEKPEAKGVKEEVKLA
QUANTITY: IC50

- MOLECULE: "CNC(=O)CCCCC[C@H](NC(=O)CN1CCCCC1)c1ncc(-c2ccc3ccccc3c2)[nH]1"
  VALUE_OBSERVED: "1 to 5 µM"
- MOLECULE: "CNC(=O)CCCCC[C@H](NC(=O)CCN1CCCCC1)c1ncc(-c2ccc(C(F)(F)F)cc2)[nH]1"
  VALUE_OBSERVED: "> 5 µM"
- MOLECULE: "CNC(=O)CCCCC[C@H](NC(=O)C1(C)CCOCC1)c1ncc(-c2cc3ccccc3nc2OC)[nH]1"
  VALUE_OBSERVED: "1 to 5 µM"
- MOLECULE: "CNC(=O)CCCCC[C@H](NC(=O)C1(C)CCCO1)c1ncc(-c2ccc3ccncc3c2)[nH]1 (stereo partly drawn)"
  VALUE_OBSERVED: "> 5 µM"
- MOLECULE: "CNC(=O)CCCCC[C@H](NC(=O)c1cnn(C(C)C)c1)c1ncc(-c2ccc3ccncc3c2)[nH]1"
  VALUE_OBSERVED: "< 1 µM"
- MOLECULE: "CNC(=O)CCCCC[C@H](NC(=O)C12CCN(CC1)CC2)c1ncc(-c2cc3ccccc3[nH]c2=O)[nH]1"
  VALUE_OBSERVED: "1 to 5 µM"
- MOLECULE: "CNC(=O)CCCCC[C@H](NC(=O)Cc1cnccn1)c1ncc(-c2ccc3ccccc3c2)[nH]1"
  VALUE_OBSERVED: "1 to 5 µM"
- MOLECULE: "CNC(=O)CCCCC[C@H](NC(=O)c1cncs1)c1ncc(-c2ccc(-c3ccccc3)s2)[nH]1"
  VALUE_OBSERVED: "1 to 5 µM"
- MOLECULE: "CNC(=O)CCCCC[C@H](NC(=O)c1cncs1)c1ncc(-c2ccc3cc[nH]c3c2)[nH]1"
  VALUE_OBSERVED: "1 to 5 µM"
- MOLECULE: "CNC(=O)CCCCC[C@H](NC(=O)Cc1ncccn1)c1ncc(-c2ccc(-c3ccn(C)n3)cc2)[nH]1"
  VALUE_OBSERVED: "> 5 µM"
- MOLECULE: "CNC(=O)CCCCC[C@H](NC(=O)CCn1ccnc1)c1ncc(-c2cc3ccccc3nc2OC)[nH]1"
  VALUE_OBSERVED: "1 to 5 µM"
- MOLECULE: "CNC(=O)CCCCC[C@H](NC(=O)c1ccn(C)n1)c1ncc(-c2cc3ccccc3nc2OC)[nH]1"
  VALUE_OBSERVED: "> 5 µM"
- MOLECULE: "COc1nc2ccccc2cc1-c1cnc([C@H](CCCCCC(N)=O)OC(=O)C23CCN(CC2)CC3)o1"
  VALUE_OBSERVED: "< 1 µM"
- MOLECULE: "CNC(=O)CCCCC[C@H](NC(=O)c1cncs1)c1ncc(-c2ccc(-n3nc(C)cc3C)cc2)[nH]1"
  VALUE_OBSERVED: "> 5 µM"
- MOLECULE: "CNC(=O)CCCCC[C@H](NC(=O)c1cncs1)c1ncc(-c2ccc(-c3nccs3)cc2)[nH]1"
  VALUE_OBSERVED: "1 to 5 µM"

====

- Tested on: Plasmodium falciparum 3D7
- TEST_NAME: P. falciparum growth inhibition assay (Pf-LDH)
- Format: cell-based
- MEASUREMENT_CONTEXT: HDAC HeLa Cell Based IC50 (μM)/Pf-LDH EC50 (μM)

- GIVEN_SMILES: "CNC(=O)CCCCC[C@H](NC(=O)c1cnn(C(C)C)c1)c1ncc(-c2ccc3cc(OC)ncc3c2)[nH]1"
  Selectivity Index: 23.5
- GIVEN_SMILES: "CNC(=O)CCCCC[C@H](NC(=O)c1cncs1)c1ncc(-c2ccc(-c3cncs3)cc2)[nH]1"
  Selectivity Index: 3.6
- GIVEN_SMILES: "CNC(=O)CCCCC[C@H](NC(=O)c1cncs1)c1ncc(-c2ccc(-c3nccs3)cc2)[nH]1"
  Selectivity Index: 10.6
- GIVEN_SMILES: "CNC(=O)CCCCC[C@H](NC(=O)c1cncs1)c1ncc(-c2ccc(-c3cscn3)cc2)[nH]1"
  Selectivity Index: 14.2
- GIVEN_SMILES: "CNC(=O)CCCCC[C@H](NC(=O)c1cncs1)c1ncc(-c2ccc(-c3ccnn3C)cc2)[nH]1"
  Selectivity Index: 5.6
- GIVEN_SMILES: "CNC(=O)CCCCC[C@H](NC(=O)c1cncs1)c1ncc(-c2ccc(-c3cnn(C)c3)cc2)[nH]1"
  Selectivity Index: 6.7
